test: Dynamic moisture sorption (DMS) assessment; format: physicochemical; conditions: from DMS profile; Form 1 per European Pharmacopoeia Technical Guide classification
observable: hygroscopicity

> print(dat)
                                   molecule      observable  assay.value
1  CC(C)OC(=O)[C@H](O)CN(Cc1ccc(-c2cccc(Cl)c2)cc1)NC(=O)c1cc(O)no1 [Form 2]  hygroscopicity  hygroscopic
2  CC(C)OC(=O)[C@H](O)CN(Cc1ccc(-c2cccc(Cl)c2)cc1)NC(=O)c1cc(O)no1 [Form 3]  hygroscopicity  hygroscopic
